- target or system: K18PL tau (Homo sapiens, UniProt P10636, P618L)
- Construct: (K18PL; amino acids 244-369); made in house
- Sequence (P10636 561-686 P618L): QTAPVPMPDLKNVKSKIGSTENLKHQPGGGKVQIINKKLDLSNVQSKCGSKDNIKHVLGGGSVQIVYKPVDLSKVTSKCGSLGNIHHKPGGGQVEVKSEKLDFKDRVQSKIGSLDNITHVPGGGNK
- assay remarks: K18PL tau centrifugation (sedimentation) assay, SDS-PAGE densitometry
- Format: biochemical
- experimental conditions: Table 4; K18PL tau centrifugation assay
measured quantity: Tau Cent. Assay % Soluble (%)

INSERT INTO assay_data (compound, value_reported) VALUES
  ('Nc1scc2c(C(=O)NC3CC3)nn(-c3ccc(F)cc3)c(=O)c12 [CNDR-51397]', 78),
  ('CCOC(=O)c1nn(-c2ccc(N)cc2)c(=O)c2c(N)scc12 [CNDR-51355]', 67),
  ('CCOC(=O)c1nn(-c2ccc(O)cc2)c(=O)c2c(N)scc12 [CNDR-51363]', 69);

* * *

- target or system: K18PL tau (Homo sapiens, UniProt P10636, P618L)
- Construct: (K18PL; amino acids 244-369); made in house
- assay remarks: Heparin-induced K18PL tau fibrillization assay monitored by ThT fluorescence
- Assay type: biochemical
- experimental conditions: Table 4; highest tested concentration (80 μM); read-out: Tau ThT Assay % Inhib.
measured quantity: inhibition at 80 µM (%)

INSERT INTO measurements (structure_smiles, value_reported) VALUES
  ('CCOC(=O)c1nn(-c2ccc(N=[N+]=[N-])cc2)c(=O)c2c(N)scc12', 80),
  ('CCOC(=O)c1nn(-c2ccc([N+](=O)[O-])cc2)c(=O)c2c(N)scc12', 69),
  ('Nc1scc2c(C(=O)NCCO)nn(-c3ccc(Cl)cc3)c(=O)c12', 82),
  ('CCOC(=O)c1nn(-c2ccccc2C)c(=O)c2c(N)scc12', 82),
  ('CCOC(=O)c1nn(-c2ccc(N(C)C)cc2)c(=O)c2c(N)scc12', 68);

* * *

Quick reference: inhibition at 80 µM of the listed items.
- target or system: K18PL tau (Homo sapiens, UniProt P10636, P618L)
- Construct: (K18PL; amino acids 244-369); made in house
- assay remarks: Heparin-induced K18PL tau fibrillization assay monitored by ThT fluorescence
- Format: biochemical
- experimental conditions: Table 4; highest tested concentration (80 μM); read-out: Tau ThT Assay % Inhib.
measured quantity: inhibition at 80 µM (%)

INSERT INTO results (structure_smiles, target_or_system, measured_quantity, unit_text, value_reported) VALUES
  ('Nc1scc2c(C(=O)NC3CC3)nn(-c3ccc(F)cc3)c(=O)c12', 'K18PL tau (Homo sapiens, UniProt P10636, P618L)', 'inhibition at 80 µM', '%', 88),
  ('CC(C)NC(=O)c1nn(-c2ccc(F)cc2)c(=O)c2c(N)scc12', 'K18PL tau (Homo sapiens, UniProt P10636, P618L)', 'inhibition at 80 µM', '%', 89),
  ('Nc1scc2c(C(=O)O)nn(-c3ccc(OC(F)(F)F)cc3)c(=O)c12', 'K18PL tau (Homo sapiens, UniProt P10636, P618L)', 'inhibition at 80 µM', '%', 88);

Values from patent US20130029983A1
